Here, each record is paired with measured MFI data.
- Target Or Test System: T1, Human CD3 on CD3+ Jurkat cells (human, UniProt P07766 23-207)
- T1 construct: whole, on cells; Target is the endogenous CD3 complex on cells; also called Human CD3+ Jurkat cells
- T1 sequence (P07766 23-207): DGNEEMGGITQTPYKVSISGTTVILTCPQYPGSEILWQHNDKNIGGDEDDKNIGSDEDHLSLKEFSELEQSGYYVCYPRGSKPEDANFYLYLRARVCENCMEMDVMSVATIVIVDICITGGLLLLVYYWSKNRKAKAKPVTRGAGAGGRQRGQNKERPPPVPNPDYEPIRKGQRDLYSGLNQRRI
- Method Summary: flow cytometry, 100 nM IgG
- Method: Specificity of the anti-CD3 antibodies for human CD3+ Jurkat cells and Cynomolgus monkey HSC-F cells was determined using a FACS cell binding assay. Briefly, cells were thawed and washed with cold PBSF buffer (PBS+0.1% BSA, pH 7.4). About 200,000 cells were aliquoted per well of a 96-well plate and pelleted by centrifugation (5 minutes at 500×g). The cells were washed and resuspended in 100 μl PBSF with CHO-produced anti-CD3 IgG antibody (100 nM). […] Binding was analyzed on FACS Canto II. […]
# value in MFI; strip the unit string

Some binders with recorded MFI:
## Task Param item = Antibody No. A001 (ADI-26906) IgG1 (antibody, V domains shown, IgG1, CHO-produced) VH: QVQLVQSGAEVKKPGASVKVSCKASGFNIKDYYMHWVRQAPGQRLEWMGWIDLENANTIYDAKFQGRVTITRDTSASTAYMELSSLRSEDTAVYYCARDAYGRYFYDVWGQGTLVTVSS VL: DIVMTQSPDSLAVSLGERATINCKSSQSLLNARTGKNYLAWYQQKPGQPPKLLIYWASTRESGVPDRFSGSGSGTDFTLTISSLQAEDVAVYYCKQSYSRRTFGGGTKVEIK ; retrieve measured MFI.
## Result 3150

## Task Param item = Antibody No. V002 (ADI-67445) IgG1 (antibody, V domains shown, IgG1, CHO-produced) VH: QVQLVQSGAEVKKPGASVKVSCKASGFNIKDYYMHWVRQAPGQRLEWMGWIDLENAETIYDAKFQDRVTITRDTSASTAYMELSSLRSEDTAVYYCARDAYGRYFYDEWGQGTLVTVSS VL: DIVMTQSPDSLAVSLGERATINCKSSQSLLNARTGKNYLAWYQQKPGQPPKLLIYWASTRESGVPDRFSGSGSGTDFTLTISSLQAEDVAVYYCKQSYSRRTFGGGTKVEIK ; retrieve measured MFI.
## Result 3040

## Task Param item = Antibody No. V007 (ADI-67450) IgG1 (antibody, V domains shown, IgG1, CHO-produced) VH: QVQLVQSGAEVKKPGASVKVSCKASGFNIDDYYMHWVRQAPGQRLEWMGWIDLENANTIDDAKFQGRVTITRDTSASTAYMELSSLRSEDTAVYYCARDAYGRYFYDVWGQGTLVTVSS VL: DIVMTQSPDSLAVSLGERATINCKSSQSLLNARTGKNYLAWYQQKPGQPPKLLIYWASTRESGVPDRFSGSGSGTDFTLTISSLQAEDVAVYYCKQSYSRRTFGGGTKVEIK ; retrieve measured MFI.
## Result 2930

## Task Param item = Antibody No. V006 (ADI-67449) IgG1 (antibody, V domains shown, IgG1, CHO-produced) VH: QVQLVQSGAEVKKPGASVKVSCKASGFNDKDYYMHWVRQAPGQRLEWMGWIDLENAETIYDAKFQDRVTITRDTSASTAYMELSSLRSEDTAVYYCARDAYGRYFYDVWGQGTLVTVSS VL: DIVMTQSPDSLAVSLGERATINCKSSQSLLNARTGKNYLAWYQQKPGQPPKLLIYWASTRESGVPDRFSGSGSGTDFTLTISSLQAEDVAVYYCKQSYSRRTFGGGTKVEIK ; retrieve measured MFI.
## Result 3040

***
## Task Param item = Antibody No. V008 (ADI-70325) IgG1 (antibody, V domains shown, IgG1, CHO-produced) VH: QVQLVQSGAEVKKPGASVKVSCKASGFNIKDYYMHWVRQAPGQRLEWIGWIDLENAETVYDAKFQDRVTITRDTSASTAYMELSSLRSEDTAVYYCARDAYGRYFYDVWGQGTLVTVSS VL: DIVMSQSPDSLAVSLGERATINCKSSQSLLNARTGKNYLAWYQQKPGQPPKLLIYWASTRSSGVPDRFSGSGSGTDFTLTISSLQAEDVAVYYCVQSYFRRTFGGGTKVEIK ; retrieve measured MFI.
## Result 3200
